Test system: THRa homodimer (NR concentration 90 nM)
Experiment: PBM binding z-score (relative to random genomic background probes); higher = stronger binding; sequences stand for … in GC…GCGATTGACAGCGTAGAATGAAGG
experimental.readout: PBM binding z-score

polymer.sequence	PBM binding z-score
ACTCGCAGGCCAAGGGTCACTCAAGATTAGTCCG	0.204

// for each sequence below, give its PBM binding z-score
1. CCTAATGGGCCAAAGGTCATTGATTCCAATGCTC
2. TCTGGCAGGCCAGAGGGTCACTCAAGAGGTACGG
3. ATCGAAAGGTCGAGGGGAGTATAGAGAAAGGGAA
4. TCTGGTAGGTCAGTTGGTCAGCTAACGAGCTGCC
5. GCTATTAATTGAAAGGGCAACCGAATGATTCTCG
6. TCTTGTAGATCGACAGGAGGTTAAGAAAGATCGA
7. GCGACTGGGGCATCAGCAGGTTACCACAACTTAA

Result:
0.623
-0.676
0.272
0.0551
-0.3
-0.764
-0.203

---

Tested on: RARa homodimer (NR concentration 270 nM)
Assay: PBM binding z-score (relative to random genomic background probes); higher = stronger binding; sequences stand for … in GC…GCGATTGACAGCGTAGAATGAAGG
experimental.readout: PBM binding z-score
Give bare numbers.

Dear reader, for each entry below, please note its PBM binding z-score.
1. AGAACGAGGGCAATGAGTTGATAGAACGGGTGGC
2. CGTACAAGGTCAATGCTAGGTCAGTGAAAGCATT
3. TCTTGGAGATCAGCAGGTTAAGAAAGCTGGCCAA

Result:
[-0.124, 2.18, 0.00806]

Hi! Can you tell me PBM binding z-score for each of these sequences?
1. CCGACTGGGGCTAGGTTACCATAACGCACAGCCA
2. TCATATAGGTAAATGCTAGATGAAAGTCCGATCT
3. CGTCCAAGGCCAGCAGGTCAGTGAAAGCGACGTG

Result:
-0.21
0.951
-1.23

---

System: PXR homodimer (NR concentration 270 nM)
Assay: PBM binding z-score (relative to random genomic background probes); higher = stronger binding; sequences stand for … in GC…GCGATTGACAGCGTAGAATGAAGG
experimental.readout: PBM binding z-score
Answers are plain numbers.

Fill in PBM binding z-score for each of the 4 sequences listed.
1. GCTCGGAGGACAAGGTCAGAGGTTTGTCCGTAGA
2. CAAACTAAGTCAAGAGGTCAAAGTCCGCTTCCCG
3. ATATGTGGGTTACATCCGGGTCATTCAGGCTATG
4. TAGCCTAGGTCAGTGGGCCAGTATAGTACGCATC

Result:
[-0.0547, 2.97, 2.92, -0.662]

Hello, I would appreciate it if you could give PBM binding z-score for each entry below.
1. TAGCCTAGGTCAAATCGGGCCAGTATACGCTATA
2. CCTACTGGGCCAAGGTCATTCATCAGTCAAAGCA
3. CCGACTGGGGCAAGGGTACCATAACGCACAGCCA

Result:
1: -0.306; 2: 1.66; 3: -0.439

---

Can you tell me PBM binding z-score for the items I'm about to list?
System: LXRb homodimer (NR concentration 270 nM)
Assay: PBM binding z-score (relative to random genomic background probes); higher = stronger binding; sequences stand for … in GC…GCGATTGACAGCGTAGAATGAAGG
Give bare numbers.

polymer.sequence	PBM binding z-score
CGAACTAGGTCAAGGACCGTGAATCTCCGCACGC	-0.781

Hi! Can you tell me PBM binding z-score for each of these sequences?
1. ATCTCTAGGTAACCGAGTTCAGTGAATGCCGAAC
2. CTTCCAAGGTCAGAGAGGTCAGTGAATGCCGAGT
3. TCTAGTTGGTCACGGAGGTGACACACGACGGGTA

Result:
0.377
0.991
0.00515

---

Test system: LXRa:RXRa (NR concentration 270 nM, RXRa partner concentration 90 nM)
Experiment: PBM binding z-score (relative to random genomic background probes); higher = stronger binding; sequences stand for … in GC…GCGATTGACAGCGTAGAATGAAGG
experimental.readout: PBM binding z-score
Numbers only.

Solved entries (count: 5):
polymer.sequence	experimental.readout	measured.value
TTACCAAGGTGAGCTGAGGTCGCTGATCCAACTC	PBM binding z-score	0.578
TAGCCTAGGTCAGATCGGGCCAGTATGCGCTATA	PBM binding z-score	1.19
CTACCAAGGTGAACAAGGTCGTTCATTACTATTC	PBM binding z-score	3.01
TTACCAAGTTGAAAGGTCGTTGATGCACGCCTTG	PBM binding z-score	2.74
GCATATAGGTAATACGAGGTGAAAGTCCGATTGT	PBM binding z-score	2.66

Please look at the following sequence next.
Problem: Write down the reported PBM binding z-score (system: LXRa:RXRa (NR concentration 270 nM, RXRa partner concentration 90 nM)) of TCTTGTAGATCAACAGGAGGTTAACAAAGATCGA
Result: 1.73

---

Tested on: PPARg:RXRa 30nM:10nM, anti-RXR (NR concentration 30 nM, RXRa partner concentration 10 nM)
Assay: PBM binding z-score (relative to random genomic background probes); higher = stronger binding; sequences stand for … in GC…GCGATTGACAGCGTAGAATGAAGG
Could you label it Condition met if measured PBM binding z-score is 0.8 or higher, and Condition not met otherwise?

Solved cases (2 shown):
polymer.sequence	label.value
TATACAGTGTCAAAGGCCAGAGTACGAATGTCGA	Condition met
TCAAGTAGGTTAGTCGGGGCATTCAGCCAACATA	Condition met

Problem: # check: PBM binding z-score of CCTCGGAGGACAGAAGGTCTGAGCTGTCCGCTTT is greater than or equal to 0.8
Result: Condition not met

Problem: Identify whether the reported PBM binding z-score of the following sequence is 0.8 or greater: CAAACTAGGTCAAGCTCAAAGTCGGTTTGTGCCA
Result: Condition met

Problem: Record GCTAGCAGGCCATTTGGGTAACTCAATGACGGGC ; criterion: PBM binding z-score no lower than 0.8. Met?
Result: Condition not met

Problem: Could you please find out whether TCTAGTTGGCCAAAGGTCACACACTCGAAATGCG has PBM binding z-score that meets 0.8 or exceeds it?
Result: Condition met

Problem: Could you verify whether the entry CGTCAAAGTTCGACTAAGGTAACGTAAAGCACGC shows PBM binding z-score of no less than 0.8?
Result: Condition not met

Problem: Has TCTATTAGTTGATTAGGGCACCCGAAACAGCGGA a recorded PBM binding z-score greater than or equal to 0.8?
Result: Condition met

Problem: Has TCTTGTCGATCAAAGGTTAAGAAAGCCGAAGCCT a recorded PBM binding z-score greater than or equal to 0.8?
Result: Condition met

Problem: Evaluate GCTGCTAGGTCAACTGATAGTCAGCTAAAGCTCG : PBM binding z-score at minimum 0.8?
Result: Condition not met

Problem: Evaluate TCATATAGGAAAACAGGTGAAAGTCCGTAAGTTA : PBM binding z-score at minimum 0.8?
Result: Condition met

Problem: hey, is PBM binding z-score for this one >= 0.8? CAAACTAGGTCACGAAAGGTCAAAGGCGAATGAC
Result: Condition met

---

Would you kindly list PBM binding z-score for each of these sequences?
Tested on: LXRa homodimer (NR concentration 270 nM)
Experiment: PBM binding z-score (relative to random genomic background probes); higher = stronger binding; sequences stand for … in GC…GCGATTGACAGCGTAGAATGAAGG
Give bare numbers.

polymer.sequence	experimental.readout	measured.value
GCTCACGGGTCAAAGGTTATAGCATGAATAGAAT	PBM binding z-score	0.496
TCTAGCAGGCCAGTGGGTCACTCAAGAGGTACGG	PBM binding z-score	-0.387
TAGCCTAGGTCATTCAGGGGCCAGTATTGAAAGC	PBM binding z-score	0.907

For each entry beneath this line, provide reported PBM binding z-score.
1. ATATGTAGGTTATCTGGTCATTCAGTTTGCGCAT
2. TCTAGTAGATCAAAGGTTAAGAAAGCCGAAGCCT
3. AGTCAGAGTTCACTAGGTAACGTAAGATTCAGCT
4. CGAACTAGTTCATCCAGGACAGTGAATACATTGA

Result:
1.15
0.141
2.25
0.205

---

Tested on: THRa homodimer (NR concentration 90 nM)
Test: PBM binding z-score (relative to random genomic background probes); higher = stronger binding; sequences stand for … in GC…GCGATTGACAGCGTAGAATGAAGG
experimental.readout: PBM binding z-score
Answers are plain numbers.

Answered examples (2):
polymer.sequence	tested.on	PBM binding z-score
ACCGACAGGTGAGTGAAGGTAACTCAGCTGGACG	THRa homodimer (NR concentration 90 nM)	-0.918
TCATATAGGTAAAAGGTGAACGTCGGTGTGGTAA	THRa homodimer (NR concentration 90 nM)	0.67

Hey, can you go through the list below and give me PBM binding z-score for every item?
1. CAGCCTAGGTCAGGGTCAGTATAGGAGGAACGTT
2. CCTCGGAGGACAACAGGAGGTCAGTGCTGCCAGA
3. ATCTCTAGGTAAGACTCATTTCAGTGAAGAACGC
4. GCTCGGAGGACAAGCTCAGAGCTTTGTCCGTAGA

Result:
1. 1.53
2. 0.965
3. 0.931
4. -0.504

Provide reported PBM binding z-score for each item, in the same order as listed.
1. TCGAGTAGGTTACCAATGGGGCATTCAACTTTCT
2. AATACAGGGTCATCGTAGGCCACAGTACGCACAG
3. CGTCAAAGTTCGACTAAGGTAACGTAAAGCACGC
4. TCTATTAGTTGAAGGGCAACCGTCGAGTCCGTTT

Result:
[-0.246, 1.72, 1.58, 0.122]

Below is a list of sequences. For each, state its recorded PBM binding z-score.
1. TCTATTAGTTGATTAGGACAACCGAAACAGCGGA
2. TCTAGTTGGTCACAGGTCACACACTCGAAATGCG
3. ACTATTAGTTGAGACGACGGCAACCGATAGGTTG
4. ATCTCTAGGTAAAGATAGTCCAGTGAATGCAAAT

Result:
1. 1.63
2. 1.97
3. -0.596
4. 0.315

Look up PBM binding z-score for the entries below, preserving their order.
1. CTTACTGGGCCACGAAAGGTCATTGATTCAGTGA
2. GTACCAAGGTGAATAGGTAGTTGATGAGTAGGCG
3. TCATTTAGGTAAAGGTGAAAGTCGAACGATATGA
4. TCGAGTAGGTTAGTCGGGGCATTGAGCCAACATA
5. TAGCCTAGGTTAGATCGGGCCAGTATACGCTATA
6. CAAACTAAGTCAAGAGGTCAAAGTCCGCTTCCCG

Result:
1. 1.15
2. 0.657
3. 0.0517
4. -0.457
5. -0.725
6. 1.7

Measured values drawn from the supplement of paper PMC6555819 for this set.
